# TEST: Pharmacokinetic parameters for Pentoxifylline evaluated after oral administration of Pentoxifylline tablet and in aqueous solution.
# Assay type: ADME, organism-based
# TEST CONDITIONS: human, in vivo, dose 100 to 400 mg, dosed compound id 54, dosed compound name PENTOXIFYLLINE, tissue Plasma
MEASURE: half-life

Measured half-life, `CC(=O)CCCCn1c(=O)c2c(ncn2C)n(C)c1=O` : 24 to 48 min

----------
# Tested on: Homo sapiens
# TEST: Pharmacokinetic parameters for Pentoxifylline evaluated after oral administration of Pentoxifylline tablet and in aqueous solution.
# Type: ADME, organism-based
# TEST CONDITIONS: in vivo, po, dose 400 mg, dosed compound id 54, dosed compound name PENTOXIFYLLINE, tissue Plasma
MEASURE: Tmax

For this compound ( CC(=O)CCCCn1c(=O)c2c(ncn2C)n(C)c1=O [PENTOXIFYLLINE] ), measured Tmax is 2 to 4 h

----------
# TEST: Pharmacokinetic parameters for Pentoxifylline evaluated after oral administration of Pentoxifylline tablet and in aqueous solution.
# Type: ADME, organism-based
# TEST CONDITIONS: human, in vivo, dosed compound id 54, dosed compound name PENTOXIFYLLINE, tissue Plasma
MEASURE: Tmax (h)
Express your answer in h, writing the number without its unit.

Just so you know, measured Tmax for `CC(=O)CCCCn1c(=O)c2c(ncn2C)n(C)c1=O` came out at 1
